Hello, the source for this data is the NIST ThermoML archive (doi:10.1021/je060485s), in case you need it.

Could you please report measured mass density for the items listed next?
Conditions: 308.15 K; 101 kPa; Liquid
Numbers only, in kg/m3.

These solved cases illustrate the format of a correct answer.
COMPOUND	REPORTED_VALUE
Cc1ccccc1C	866.62
CCc1ccccc1	853.43
CCCOC(C)=O [propyl ethanoate]	871.35
Cc1ccc(C)cc1	848.26

# next compound below
Using known records, supply mass density for Cc1cccc(C)c1 851.19

---

Give surface tension liquid-gas for every item shown.
Settings: 303.15 K, Pendant drop shape
Give bare numbers, in mN/m.

COMPOUND	surface tension liquid-gas, mN/m
CCCOC(C)=O [propyl ethanoate]	23.46
Cc1cccc(C)c1 [1,3-dimethylbenzene]	27.93
Cc1ccccc1C [1,2-dimethylbenzene]	29.24
Cc1ccc(C)cc1 [1,4-dimethylbenzene]	27.47

Now examine the next entry.
Retrieve surface tension liquid-gas measured for CCc1ccccc1 [ethylbenzene] and print it. 28.29

---

Conditions: 298.15 K, Pendant drop shape
Answer each item with its documented surface tension liquid-gas.
Numbers only, in mN/m.

MOLECULE	MEASUREMENT_UNIT	REPORTED_VALUE
CCCOC(C)=O [propyl ethanoate]	mN/m	23.91
CCc1ccccc1	mN/m	28.79
Cc1cccc(C)c1	mN/m	28.47

Report surface tension liquid-gas for each item below.
1. Cc1ccc(C)cc1
2. Cc1ccccc1C

1: 28.08; 2: 29.89

---

Conditions: 303.15 K; 101 kPa; Liquid
Field: mass density. Provide a value for each of the compounds that follow.
Give bare numbers, in kg/m3.

COMPOUND	mass density [kg/m3]
CCCOC(C)=O [propyl ethanoate]	876.99

List mass density for every entry below, keeping the order given.
1. Cc1ccc(C)cc1 [1,4-dimethylbenzene]
2. Cc1ccccc1C [1,2-dimethylbenzene]
3. CCc1ccccc1 [ethylbenzene]
4. Cc1cccc(C)c1 [1,3-dimethylbenzene]

852.58
870.83
857.88
855.51

---

Conditions: 308.15 K, Pendant drop shape
RESULT_TYPE: surface tension liquid-gas (mN/m)
Numbers only, in mN/m.

Below, each entry is followed by its recorded surface tension liquid-gas result.
COMPOUND	REPORTED_VALUE
Cc1ccc(C)cc1 [1,4-dimethylbenzene]	27.13
Cc1cccc(C)c1 [1,3-dimethylbenzene]	27.37
CCCOC(C)=O [propyl ethanoate]	22.79

Hello, I would appreciate it if you could give surface tension liquid-gas for each entry below.
1. Cc1ccccc1C [1,2-dimethylbenzene]
2. CCc1ccccc1 [ethylbenzene]

1. 28.57
2. 27.85

---

Details: 298.15 K; 101 kPa; Liquid
Field: mass density. Provide a value for each of the molecules that follow.
Answers are plain numbers, in kg/m3.

MOLECULE	mass density, kg/m3
Cc1cccc(C)c1 [1,3-dimethylbenzene]	859.8

Respectfully, I request mass density for each entry included below.
1. CCCOC(C)=O [propyl ethanoate]
2. CCc1ccccc1 [ethylbenzene]
3. Cc1ccccc1C [1,2-dimethylbenzene]
4. Cc1ccc(C)cc1 [1,4-dimethylbenzene]

1. 882.54
2. 862.25
3. 875.05
4. 856.92
